Source listed as ChEMBL document CHEMBL4145476.

Target: Neuromedin-U receptor 1 (Homo sapiens)
Sequence (whole entry): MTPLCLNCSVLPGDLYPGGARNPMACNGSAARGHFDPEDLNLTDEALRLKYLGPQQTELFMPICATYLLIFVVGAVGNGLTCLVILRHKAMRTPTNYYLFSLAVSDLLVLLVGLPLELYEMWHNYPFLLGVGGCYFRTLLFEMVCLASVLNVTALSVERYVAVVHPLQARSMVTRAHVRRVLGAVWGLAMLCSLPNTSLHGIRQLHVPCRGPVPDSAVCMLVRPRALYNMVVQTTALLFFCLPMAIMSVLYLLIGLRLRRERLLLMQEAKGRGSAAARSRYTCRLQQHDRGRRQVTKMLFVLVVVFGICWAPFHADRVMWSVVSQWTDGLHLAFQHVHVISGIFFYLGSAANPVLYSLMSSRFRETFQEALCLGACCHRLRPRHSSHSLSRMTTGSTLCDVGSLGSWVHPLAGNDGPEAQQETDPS
Experiment: Agonist activity at human NMUR1 expressed in HEK293 cells assessed as induction of IP3 levels at 10^-5 M using myo-[2-3H(N)]-inositol after 60 mins by SPA-based topcount assay relative to NMU-8
Type: functional, cell-based
Square brackets hold non-standard residues; d marks the D form. Peptide text beside a SMILES is read from it. N(4-hydroxyphenethyl)Gly = O=C(O)CNCCc1ccc(O)cc1; Gly(N-4-hydroxybenzyl) = O=C(O)CNCc1ccc(O)cc1; Oic = O=C(O)[C@@H]1C[C@@H]2CCCC[C@@H]2N1; Tic(7-OH) = O=C(O)[C@@H]1Cc2ccc(O)cc2CN1; 2Nal = N[C@@H](Cc1ccc2ccccc2c1)C(=O)O; Gly(NCH2CH2Ph) = O=C(O)CNCCc1ccccc1
Label condition met when Emax is strictly below 80%; at or above that, label condition not met.

# check: Emax < 80% for CC(=O)N[C@@H](Cc1ccc(O)cc1)C(=O)N[C@@H](Cc1ccccc1)C(=O)N[C@@H](CC(C)C)C(=O)N(CCc1ccc(O)cc1)CC(=O)N[C@@H](CCCNC(=N)N)C(=O)N1CCC[C@H]1C(=O)N[C@@H](CCCNC(=N)N)C(=O)N[C@@H](CC(N)=O)C(N)=O (Ac-YFL[N(4-hydroxyphenethyl)Gly]RPRN-NH2)
condition met

# check: Emax < 80% for CC(=O)N[C@@H](Cc1ccc(O)cc1)C(=O)N[C@@H](Cc1ccccc1)C(=O)N[C@@H](CC(C)C)C(=O)N1Cc2cc(O)ccc2C[C@H]1C(=O)N[C@@H](CCCNC(=N)N)C(=O)N1CCC[C@H]1C(=O)N[C@@H](CCCNC(=N)N)C(=O)N[C@@H](CC(N)=O)C(N)=O (Ac-YFL[Tic(7-OH)]RPRN-NH2)
condition not met

# check: Emax < 80% for CC(=O)N[C@@H](Cc1ccc(O)cc1)C(=O)N[C@@H](Cc1ccccc1)C(=O)N[C@@H](CC(C)C)C(=O)N[C@@H](Cc1ccccc1)C(=O)N[C@@H](CCCNC(=N)N)C(=O)N1[C@H](C(=O)N[C@@H](CCCNC(=N)N)C(=O)N[C@@H](CC(N)=O)C(N)=O)C[C@@H]2CCCC[C@@H]21 (Ac-YFLFR[Oic]RN-NH2)
condition not met

# check: Emax < 80% for CC(=O)N[C@@H](Cc1ccc(O)cc1)C(=O)N[C@@H](Cc1ccccc1)C(=O)N[C@@H](CC(C)C)C(=O)N(CC(=O)N[C@@H](CCCNC(=N)N)C(=O)N1CCC[C@H]1C(=O)N[C@@H](CCCNC(=N)N)C(=O)N[C@@H](CC(N)=O)C(N)=O)Cc1ccc(O)cc1 (Ac-YFL[Gly(N-4-hydroxybenzyl)]RPRN-NH2)
condition met

# check: Emax < 80% for CC(C)C[C@H](NC(=O)[C@H](Cc1ccccc1)NC(=O)[C@@H](N)Cc1ccc(O)cc1)C(=O)N1[C@H](C(=O)N[C@@H](CCCNC(=N)N)C(=O)N2CCC[C@H]2C(=O)N[C@@H](CCCNC(=N)N)C(=O)N[C@@H](CC(N)=O)C(N)=O)C[C@@H]2CCCC[C@@H]21 (H-YFL[Oic]RPRN-NH2)
condition met

# check: Emax < 80% for CC(=O)N[C@@H](Cc1ccc(O)cc1)C(=O)N[C@@H](Cc1ccccc1)C(=O)N[C@@H](CC(C)C)C(=O)N(CCc1ccccc1)CC(=O)N[C@@H](CCCNC(=N)N)C(=O)N1CCC[C@H]1C(=O)N[C@@H](CCCNC(=N)N)C(=O)N[C@@H](CC(N)=O)C(N)=O (Ac-YFL[Gly(NCH2CH2Ph)]RPRN-NH2)
condition not met

# check: Emax < 80% for `Cc1cc(O)cc(C)c1C[C@H](N)C(=O)N[C@@H](Cc1ccccc1)C(=O)N[C@@H](CC(C)C)C(=O)N[C@@H](Cc1ccccc1)C(=O)N[C@@H](CCCNC(=N)N)C(=O)N1CCC[C@H]1C(=O)N[C@@H](CCCNC(=N)N)C(=O)N[C@@H](CC(N)=O)C(N)=O`
condition not met

# check: Emax < 80% for CC(C)C[C@H](NC(=O)[C@H](Cc1ccccc1)NC(=O)[C@@H](N)Cc1ccc(O)cc1)C(=O)N(CCc1ccc(O)cc1)CC(=O)N[C@@H](CCCNC(=N)N)C(=O)N1CCC[C@H]1C(=O)N[C@@H](CCCNC(=N)N)C(=O)N[C@@H](CC(N)=O)C(N)=O (H-YFL[N(4-hydroxyphenethyl)Gly]RPRN-NH2)
condition met

# check: Emax < 80% for CC(=O)N[C@@H](Cc1ccc(O)cc1)C(=O)N[C@@H](Cc1ccccc1)C(=O)N[C@@H](CC(C)C)C(=O)N[C@@H](Cc1ccc2ccccc2c1)C(=O)N[C@@H](CCCNC(=N)N)C(=O)N1CCC[C@H]1C(=O)N[C@@H](CCCNC(=N)N)C(=O)N[C@@H](CC(N)=O)C(N)=O (Ac-YFL[2Nal]RPRN-NH2)
condition not met

# check: Emax < 80% for CC(C)C[C@H](NC(=O)[C@H](Cc1ccccc1)NC(=O)[C@@H](N)Cc1ccc(O)cc1)C(=O)N1Cc2cc(O)ccc2C[C@H]1C(=O)N[C@@H](CCCNC(=N)N)C(=O)N1CCC[C@H]1C(=O)N[C@@H](CCCNC(=N)N)C(=O)N[C@@H](CC(N)=O)C(N)=O (H-YFL[Tic(7-OH)]RPRN-NH2)
condition not met

# check: Emax < 80% for `CC(=O)N[C@@H](Cc1ccc(O)cc1)C(=O)N[C@@H](Cc1ccccc1)C(=O)N[C@@H](CC(C)C)C(=O)N[C@@H](Cc1ccccc1)C(=O)N[C@@H](CCCNC(=N)N)C(=O)N1CCC[C@H]1C(=O)N[C@H](CCCNC(=N)N)C(=O)N[C@@H](CC(N)=O)C(N)=O`
condition met

# check: Emax < 80% for CC(C)C[C@H](NC(=O)[C@H](Cc1ccccc1)NC(=O)[C@@H](N)Cc1ccc(O)cc1)C(=O)N(CCc1ccccc1)CC(=O)N[C@@H](CCCNC(=N)N)C(=O)N1CCC[C@H]1C(=O)N[C@@H](CCCNC(=N)N)C(=O)N[C@@H](CC(N)=O)C(N)=O (H-YFL[Gly(NCH2CH2Ph)]RPRN-NH2)
condition met
